Hi there, I'd appreciate the recorded IC50 for every entry that follows.
TARGET_UNDER_TEST: Hck-1 (Homo sapiens)
Sequence (P08631 whole entry): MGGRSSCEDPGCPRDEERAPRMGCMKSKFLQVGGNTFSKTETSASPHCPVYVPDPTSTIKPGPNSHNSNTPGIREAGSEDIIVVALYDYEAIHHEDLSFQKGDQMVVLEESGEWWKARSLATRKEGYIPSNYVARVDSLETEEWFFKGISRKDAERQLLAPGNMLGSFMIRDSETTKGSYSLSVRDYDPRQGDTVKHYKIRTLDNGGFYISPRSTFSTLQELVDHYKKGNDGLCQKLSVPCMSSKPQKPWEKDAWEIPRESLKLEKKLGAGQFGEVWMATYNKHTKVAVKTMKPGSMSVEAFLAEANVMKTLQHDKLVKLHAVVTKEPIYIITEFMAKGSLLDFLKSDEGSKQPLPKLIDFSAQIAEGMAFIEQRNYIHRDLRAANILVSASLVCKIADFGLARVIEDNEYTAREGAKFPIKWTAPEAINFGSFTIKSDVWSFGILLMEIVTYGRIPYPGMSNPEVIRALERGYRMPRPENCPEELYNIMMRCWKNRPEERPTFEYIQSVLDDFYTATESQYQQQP

Before answering, review these 3 worked examples.
[
  {
    "SMILES_STRUCTURE": "COc1cc(Nc2ncnc(Nc3cccc4cccnc34)n2)cc(OC)c1OC",
    "TARGET_UNDER_TEST": "Hck-1 (Homo sapiens)",
    "RESULT": "> 11.1 µM"
  },
  {
    "SMILES_STRUCTURE": "COc1cc(Nc2ncnc(N(C)c3cccc4ccccc34)n2)cc(OC)c1OC",
    "TARGET_UNDER_TEST": "Hck-1 (Homo sapiens)",
    "RESULT": "0.958 to 5.75 µM"
  },
  {
    "SMILES_STRUCTURE": "COc1cc(Nc2ncnc(-n3c(NCc4ccc(F)cc4Cl)nc4ccccc43)n2)cc(OC)c1OC",
    "TARGET_UNDER_TEST": "Hck-1 (Homo sapiens)",
    "RESULT": "> 8.4 µM"
  }
]

Need IC50 for each of these molecules.
1. COc1ccc(Nc2ncnc(Nc3cc(-c4ccco4)n[nH]3)n2)cc1OC
2. COCCOc1ccc(Nc2ncnc(-n3c(N)nc4ccccc43)n2)cc1OCCOC
3. c1coc(-c2cc(Nc3ncnc(Nc4ccc(N5CCOCC5)cc4)n3)[nH]n2)c1
4. COc1cc(Nc2ncnc(N(C/C=C/c3ccccc3)c3ccc(Cl)cc3)n2)cc(OC)c1OC
5. COc1cc(Nc2ncnc(Nc3ccc(Cl)cc3F)n2)cc(OC)c1OC
6. COc1cc(Nc2ncnc(Nc3cc(Cl)c(O)c(Cl)c3)n2)cc(OC)c1OC

// result
1: > 11.9 µM; 2: > 9.97 µM; 3: > 11.1 µM; 4: > 8.93 µM; 5: 8.62 to 11.1 µM; 6: > 10.3 µM
